# Test system: OVCAR-8
# TEST: NCI tumour cell line growth inhibition, 48 h
Calls of active or inactive are those of the source. No stated cut-off is given here; in the data, active = GI50 up to about 1.1 µM and inactive = higher.
Outcomes: active, inactive

{"columns": ["COMPOUND", "ANSWER LABEL"],
 "data": [
  ["CCOC(=O)C1=C(C)NC(=O)N([N+](=O)[O-])C1c1ccccc1C(F)(F)F (stereo unspecified)", "inactive"],
  ["COC(=O)C(=O)C(C#N)c1cccc2ccccc12 (stereo unspecified)", "inactive"],
  ["CN(C)CCNc1nc2c(c(=O)n(C)c(=O)n2C)n1C", "inactive"],
  ["CC(=O)Oc1ccc2cc(-c3ccccc3OC(C)=O)c(=O)oc2c1", "inactive"],
  ["CC1(C)C[C@H]2[C@H](O)C(CO)=C3C(=O)[C@@H](O)[C@]3(C)[C@H]2C1", "inactive"],
  ["C[C@]12O[C@@]3(C)O[C@@]3(C)[C@]3(C)O[C@]3(C)[C@@]1(C)O2", "inactive"],
  ["CCC(=O)N1C(=O)C(CC)(CC)C(=O)N1C(=O)CC", "inactive"],
  ["C=CCOc1ccc(C(=N/NC(=O)c2ccccc2)/N=N/c2ccc([N+](=O)[O-])cc2)cc1OC", "inactive"],
  ["CCOC(=O)C(C)(C(=O)OCC)/C(Cl)=C\\Cl", "inactive"],
  ["COc1cc2c(c(OC)c1)C1(CC(CC#N)C2)SCCS1 (stereo unspecified)", "inactive"],
  ["CCN(CC)CCNc1ccc2nnn3c4ccccc4c(=O)c1c23", "inactive"],
  ["CCOC(=O)[C@H]1O[C@@H]1C(=O)NC(CC(C)C)C(=O)NCCC(C)C (stereo partly specified)", "inactive"],
  ["C=C(C)C1CC[C@@](C)(O)[C@H](C#N)C1 (stereo partly specified)", "inactive"],
  ["COc1cc2c(c(OC)c1OC)-c1ccc(OC)c(=O)cc1C(NC(=O)c1ccc(N=[N+]=[N-])cc1)CC2 (stereo unspecified)", "active"],
  ["COc1ccc(-c2[nH]c(-c3ccc(OC)cc3)c(-c3ccccn3)c2-c2ccccn2)cc1", "inactive"],
  ["Cc1ccc(-c2n[nH]c(=O)n2/N=C\\c2ccc([N+](=O)[O-])cc2)cc1", "inactive"],
  ["CN(O)C(=O)Cc1ccccc1", "inactive"],
  ["CCCCCCCCCCOCCOCCOCCOCCCCC(O)CCCCCCCC1=C[C@H](C)OC1=O (stereo partly specified)", "inactive"],
  ["O=C(NC12CC3CC(CC(C3)C1)C2)C(=O)c1c[nH]c2ccc(Br)cc12", "inactive"],
  ["CC(=O)c1c2c(cc3c1CC1(C3)Cc3ccc4c(c3C1=O)CCC4)CCC2 (stereo unspecified)", "inactive"],
  ["CN(C)CCC(=O)N1C/C(=C/c2ccccc2)C(=O)/C(=C\\c2ccccc2)C1", "active"]
]}

----------
Recorded GI50 by entry
# Tested on: A498
# TEST: NCI tumour cell line growth inhibition, 48 h
The source made the active and inactive calls. No stated cut-off is given here; in the data, active = GI50 up to about 1.1 µM and inactive = higher.

{"columns": ["COMPOUND STRUCTURE", "GI50"],
 "data": [
  ["CC(=O)OCOC(=O)CN(CC(=O)OCOC(C)=O)Cc1cc2c(cc1OC(C)=O)Oc1cc(OC(C)=O)c(CN(CC(=O)OCOC(C)=O)CC(=O)OCOC(C)=O)cc1C21OC(=O)c2ccccc21", "1.25 µM (inactive)"],
  ["COc1ccc2c(c1)/C(=C\\c1c(C)nc3sc(C)cn13)C(=O)N2", "0.531 µM (active)"],
  ["CCOc1ccc(Nc2nc(N)nc(N)c2N=O)cc1", "> 100 µM (inactive)"],
  ["CCOC(=O)CCn1ncc(Cl)c(Cl)c1=O", "22.7 µM (inactive)"],
  ["COC(=O)Cc1cc(O)c2c(c1O)C(=O)c1ccccc1C2=O", "48.1 µM (inactive)"]
]}
